- Tested on: non-expressing oocytes
- Assay type: cell-based, Xenopus laevis
- Experimental Setup: footnote b: highest intracellular concentration tested was 30 mM (solubility); mean ± SEM; SEM
Reported Endpoint: Trans-stimulation: total [3H]CQ transport, non-expressing oocytes

## Input # input sequence: YFPHFDLS [YS-8] ; wanted: its Trans-stimulation: total [3H]CQ transport, non-expressing oocytes
## Output 2.8 ± 0.05b % of PfCRTDd2 control

## Input # input sequence: GTFATLSELHCDK [GK-13] ; wanted: its Trans-stimulation: total [3H]CQ transport, non-expressing oocytes
## Output 2.6 ± 0.05b % of PfCRTDd2 control

## Input # input sequence: VEPSDTIENVK [VK-11] ; wanted: its Trans-stimulation: total [3H]CQ transport, non-expressing oocytes
## Output 3.1 ± 0.08b % of PfCRTDd2 control

## Input # input sequence: VHLTPEEKSAVT [VT-12] ; wanted: its Trans-stimulation: total [3H]CQ transport, non-expressing oocytes
## Output 2.2 ± 0.03b % of PfCRTDd2 control

## Input # input sequence: LTPEEKSAVTAL [LL-12] ; wanted: its Trans-stimulation: total [3H]CQ transport, non-expressing oocytes
## Output 3.2 ± 0.08b % of PfCRTDd2 control

---

- Study System: PfNT1 (Plasmodium falciparum)
- Construct: expressed in transfected cells; host or cells: Xenopus laevis oocytes (stage V-VI), cRNA-injected
- Sequence (Q8IDM6 whole entry): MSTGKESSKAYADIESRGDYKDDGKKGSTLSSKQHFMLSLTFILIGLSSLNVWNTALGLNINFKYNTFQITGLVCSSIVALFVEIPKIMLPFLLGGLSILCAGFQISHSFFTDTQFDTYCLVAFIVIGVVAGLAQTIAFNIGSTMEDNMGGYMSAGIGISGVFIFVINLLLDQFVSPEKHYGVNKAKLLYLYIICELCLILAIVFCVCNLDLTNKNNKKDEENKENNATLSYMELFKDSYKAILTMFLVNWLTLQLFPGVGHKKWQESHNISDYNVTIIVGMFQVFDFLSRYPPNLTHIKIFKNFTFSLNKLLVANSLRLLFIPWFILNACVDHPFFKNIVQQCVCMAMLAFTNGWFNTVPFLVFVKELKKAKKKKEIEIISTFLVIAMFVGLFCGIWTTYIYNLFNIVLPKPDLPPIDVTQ
- Procedure Details: cell-based
- Type: cell-based
- Experimental Setup: […]; read-out: Uptake of [3H]CQ (% PfNT1 control), trans-stimulation
Please provide measured activity at 45000 µM for the entries that follow.

## Input # input compound: C[C@@H](O)[C@H](N)C(=O)O [L-threonine] ; wanted: its activity at 45000 µM
## Output 100%

## Input # input compound: N[C@@H](CO)C(=O)O [L-serine] ; wanted: its activity at 45000 µM
## Output 98%

## Input # input compound: NC(=O)CC[C@H](N)C(=O)O [L-glutamine] ; wanted: its activity at 45000 µM
## Output 98%

## Input # input compound: N=C(N)NCCC[C@H](N)C(=O)O [L-arginine] ; wanted: its activity at 45000 µM
## Output 98%

## Input # input compound: CC(C)C[C@H](N)C(=O)O [L-leucine] ; wanted: its activity at 45000 µM
## Output 98%

## Input # input compound: C[C@H](N)C(=O)O [L-alanine] ; wanted: its activity at 45000 µM
## Output 99%

## Input # input compound: N[C@@H](Cc1ccccc1)C(=O)O [L-phenylalanine] ; wanted: its activity at 45000 µM
## Output 100%

---

- Study System: PfCRT^Ecu1110 (Plasmodium falciparum, UniProt Q9N623, A220S/I356L/K76T/N326D)
- Sequence (Q9N623 whole entry A220S/I356L/K76T/N326D): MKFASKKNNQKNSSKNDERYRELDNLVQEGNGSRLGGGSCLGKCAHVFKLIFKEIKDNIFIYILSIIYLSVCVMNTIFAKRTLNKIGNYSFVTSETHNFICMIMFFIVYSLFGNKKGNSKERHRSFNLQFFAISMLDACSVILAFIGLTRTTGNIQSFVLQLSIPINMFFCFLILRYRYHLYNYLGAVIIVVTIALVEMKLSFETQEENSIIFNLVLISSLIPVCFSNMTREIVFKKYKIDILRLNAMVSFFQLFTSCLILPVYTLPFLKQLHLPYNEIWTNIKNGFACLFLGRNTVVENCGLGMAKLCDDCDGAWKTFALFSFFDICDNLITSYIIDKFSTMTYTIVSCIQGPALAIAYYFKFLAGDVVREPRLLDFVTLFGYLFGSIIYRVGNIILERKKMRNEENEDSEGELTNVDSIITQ
- Procedure Details: [3H]CQ uptake into Xenopus oocytes, cis-inhibition by unlabelled solute
- Assay type: cell-based
- Experimental Setup: read-out: PfCRT-mediated [3H]CQ transport, cis-inhibition (% PfCRTEcu1110 control)
- Method: The orientation of PfCRT in the parasite’s DV membrane, and also in the oocyte plasma membrane, is such that its N- and C-termini extend into the cytosol. The oocytes were suspended in a reaction buffer adjusted to pH 5.5 to mimic the pH of the DV lumen[1],[2]. […] Unless specified otherwise, this is the direction in which substrate transport was measured in the oocyte assays. […]
Reported Endpoint: inhibition at 2000 µM
Give the figure together with its unit, number first.

## Input # input compound: N[C@@H](Cc1c[nH]cn1)C(=O)O [L-histidine] ; wanted: its inhibition at 2000 µM
## Output 98%

## Input # input compound: N[C@@H](CS)C(=O)O [L-cysteine] ; wanted: its inhibition at 2000 µM
## Output 98%

## Input # input compound: CC(C)[C@H](N)C(=O)O [L-valine] ; wanted: its inhibition at 2000 µM
## Output 94%

## Input # input compound: CSCC[C@H](N)C(=O)O [L-methionine] ; wanted: its inhibition at 2000 µM
## Output 98%

## Input # input compound: C[C@@H](O)[C@H](N)C(=O)O [L-threonine] ; wanted: its inhibition at 2000 µM
## Output 94%

## Input # input compound: NCCCC[C@H](N)C(=O)O [L-lysine] ; wanted: its inhibition at 2000 µM
## Output 96%

## Input # input compound: N[C@@H](CO)C(=O)O [L-serine] ; wanted: its inhibition at 2000 µM
## Output 98%

## Input # input compound: N[C@@H](Cc1ccc(O)cc1)C(=O)O [L-tyrosine] ; wanted: its inhibition at 2000 µM
## Output 95%

## Input # input compound: N=C(N)NCCC[C@H](N)C(=O)O [L-arginine] ; wanted: its inhibition at 2000 µM
## Output 99%

## Input # input compound: CC[C@H](C)[C@H](N)C(=O)O [L-isoleucine] ; wanted: its inhibition at 2000 µM
## Output 98%

## Input # input compound: CC(C)C[C@H](N)C(=O)O [L-leucine] ; wanted: its inhibition at 2000 µM
## Output 99%

## Input # input compound: NC(=O)CC[C@H](N)C(=O)O [L-glutamine] ; wanted: its inhibition at 2000 µM
## Output 96%

## Input # input compound: O=C(O)[C@@H]1CCCN1 [L-proline] ; wanted: its inhibition at 2000 µM
## Output 95%

---

- Study System: PfCRT^Ecu1110 (Plasmodium falciparum, UniProt Q9N623, A220S/I356L/K76T/N326D)
- Procedure Details: cell-based
- Type: cell-based
- Experimental Setup: PfCRTEcu1110 oocytes; footnote b: highest intracellular concentration tested was 30 mM (solubility)
Reported Endpoint: Total [3H]CQ transport, trans-stimulation by injected solute

## Input # input sequence: DDEGDDDPVPLPNVNA [DA-16, additional peptide, 16 residues] ; wanted: its Total [3H]CQ transport, trans-stimulation by injected solute
## Output 33 ± 1.8b % of the PfCRTDd2 control

## Input # input sequence: NAVAHVDDMPNALSALSDLH [NH-20, additional peptide, 20 residues] ; wanted: its Total [3H]CQ transport, trans-stimulation by injected solute
## Output 32 ± 1.7b % of the PfCRTDd2 control

## Input # input sequence: FESFGDLSTPDAVMGNPKVK [FK-20, additional peptide, 20 residues] ; wanted: its Total [3H]CQ transport, trans-stimulation by injected solute
## Output 32 ± 1.7b % of the PfCRTDd2 control

## Input # input sequence: SFGDLSTPDAVMG [SG-13] ; wanted: its Total [3H]CQ transport, trans-stimulation by injected solute
## Output 33 ± 1.4b % of the PfCRTDd2 control

## Input # input sequence: LTPEEKSAVTALWGKVNVDEVGGEA [LA-25, additional peptide, 25 residues] ; wanted: its Total [3H]CQ transport, trans-stimulation by injected solute
## Output 33 ± 1.8b % of the PfCRTDd2 control

---

- Study System: PfCRT^3D7 (Plasmodium falciparum)
- Sequence (Q8IBZ9 59-398): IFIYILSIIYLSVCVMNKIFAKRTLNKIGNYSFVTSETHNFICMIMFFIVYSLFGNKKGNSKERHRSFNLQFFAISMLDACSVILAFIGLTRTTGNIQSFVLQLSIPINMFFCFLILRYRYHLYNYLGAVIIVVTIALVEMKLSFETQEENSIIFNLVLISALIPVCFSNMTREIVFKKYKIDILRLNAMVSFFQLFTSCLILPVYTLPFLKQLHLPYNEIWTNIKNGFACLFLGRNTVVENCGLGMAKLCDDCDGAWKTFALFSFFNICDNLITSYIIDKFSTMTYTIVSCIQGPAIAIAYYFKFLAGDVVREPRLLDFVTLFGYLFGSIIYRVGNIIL
- Procedure Details: cell-based
- Format: cell-based
- Experimental Setup: [test solute]i = 5 mM (intracellular); PfCRT3D7 oocytes; normalised to oocyte type control
Please provide measured PfCRT-mediated [3H]CQ transport, trans-stimulation (% PfCRT3D7 control) for the entries that follow.
Write the value in % PfCRT3D7 control as a bare number.

## Input Lookup: PfCRT-mediated [3H]CQ transport, trans-stimulation (% PfCRT3D7 control) / PfCRT^3D7 (Plasmodium falciparum) / VDEVGG [VG-6]
## Output 140

## Input Lookup: PfCRT-mediated [3H]CQ transport, trans-stimulation (% PfCRT3D7 control) / PfCRT^3D7 (Plasmodium falciparum) / EFTPPVQ [EQ-7]
## Output 136

## Input Lookup: PfCRT-mediated [3H]CQ transport, trans-stimulation (% PfCRT3D7 control) / PfCRT^3D7 (Plasmodium falciparum) / HVDPENF [HF-7]
## Output 140

## Input Lookup: PfCRT-mediated [3H]CQ transport, trans-stimulation (% PfCRT3D7 control) / PfCRT^3D7 (Plasmodium falciparum) / SHCLLVT [ST-7]
## Output 140

## Input Lookup: PfCRT-mediated [3H]CQ transport, trans-stimulation (% PfCRT3D7 control) / PfCRT^3D7 (Plasmodium falciparum) / DPENFR [DR-6]
## Output 137

## Input Lookup: PfCRT-mediated [3H]CQ transport, trans-stimulation (% PfCRT3D7 control) / PfCRT^3D7 (Plasmodium falciparum) / EFTPPVQA [EA-8]
## Output 131

## Input Lookup: PfCRT-mediated [3H]CQ transport, trans-stimulation (% PfCRT3D7 control) / PfCRT^3D7 (Plasmodium falciparum) / HVDDMP [HP-6]
## Output 142

## Input Lookup: PfCRT-mediated [3H]CQ transport, trans-stimulation (% PfCRT3D7 control) / PfCRT^3D7 (Plasmodium falciparum) / FPHFDLS [FS-7]
## Output 96

## Input Lookup: PfCRT-mediated [3H]CQ transport, trans-stimulation (% PfCRT3D7 control) / PfCRT^3D7 (Plasmodium falciparum) / DMPNALS [DS-7, host-derived peptide upstream of PL-4]
## Output 136

## Input Lookup: PfCRT-mediated [3H]CQ transport, trans-stimulation (% PfCRT3D7 control) / PfCRT^3D7 (Plasmodium falciparum) / VLSPAD [VD-6]
## Output 97

## Input Lookup: PfCRT-mediated [3H]CQ transport, trans-stimulation (% PfCRT3D7 control) / PfCRT^3D7 (Plasmodium falciparum) / HAGEYG [HG-6]
## Output 136
